molecular target: CTX-M15 (Escherichia coli, UniProt Q9EXV5)
Sequence (Q9EXV5 29-291, species assumed): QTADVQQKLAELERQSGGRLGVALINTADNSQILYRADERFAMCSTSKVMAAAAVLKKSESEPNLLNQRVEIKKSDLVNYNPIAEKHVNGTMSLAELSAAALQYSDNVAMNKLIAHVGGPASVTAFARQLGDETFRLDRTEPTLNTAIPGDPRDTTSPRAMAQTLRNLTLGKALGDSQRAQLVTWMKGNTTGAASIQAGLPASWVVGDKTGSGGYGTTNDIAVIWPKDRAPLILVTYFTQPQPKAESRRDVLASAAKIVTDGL
property: IC50 (nM)
Numbers only, in nM.

Give IC50 (CTX-M15 (Escherichia coli, UniProt Q9EXV5)) of the following molecule: "NC(=O)[C@@H]1CC[C@@H]2CN1C(=O)N2OS(=O)(=O)O" 1.4

----------
Would you mind telling me the reported IC50 of each entry?
molecular target: AmpC; assay: In vitro enzyme inhibition assay (nitrocefin hydrolysis), AmpC; settings: nitrocefin 100µM, 10mM HEPES pH 7.5; banded; read-out: Amp-C mean IC50

As a guide, the following entries are already answered.
Entry O=C1N2C[C@@H](CC[C@@H]2F)N1OS(=O)(=O)[O-].[Na+] [Example 11, sulfate] : reported IC50 = ? > 60 nM

Entry O=C1N2C[C@@H](CC[C@H]2C(F)(F)c2nccs2)N1OS(=O)(=O)[O-].[Na+] [Example 9, sulphate] : reported IC50 = ? < 10 nM

Entry O=C1N2C[C@@H](CC[C@H]2C(F)F)N1OS(=O)(=O)[O-].[Na+] [Example 2, sulfate] : reported IC50 = ? 10 to 40 nM

Entry O=C1N2C[C@@H](CC[C@H]2C(F)(F)F)N1OS(=O)(=O)[O-].[Na+] [Example 1, sulfate] : reported IC50 = ? < 10 nM

Entry O=C1N2C[C@@H](CC[C@H]2COC(F)(F)F)N1OS(=O)(=O)[O-].[Na+] [Example 8, sulphate] : reported IC50 = ? 40 to 60 nM

Entry O=C1N2C[C@@H](CC[C@H]2F)N1OS(=O)(=O)[O-].[Na+] [Example 10, sulfate] : reported IC50 = ? 10 to 40 nM

// for each molecule below, give its IC50
1. O=C1N2C[C@@H](CC[C@H]2Cl)N1OS(=O)(=O)[O-].[Na+] [Example 12, sulfate]
2. O=C1N2C[C@@H](CC[C@H]2CF)N1OS(=O)(=O)[O-].[Na+] [Example 4, sulphate]
3. CC(F)(F)[C@@H]1CC[C@@H]2CN1C(=O)N2OS(=O)(=O)[O-].[Na+] [Example 5, sulphate]

1. < 10 nM
2. < 10 nM
3. 40 to 60 nM

// for each molecule below, give its IC50
1. O=C1N2C[C@@H](CC[C@H]2C(Cl)Cl)N1OS(=O)(=O)[O-].[Na+] [Example 3, sulfate]
2. O=C1N2C[C@@H](CC[C@H]2CCl)N1OS(=O)(=O)[O-].[Na+] [Example 6, sulphate]
3. O=C1N2C[C@@H](CC[C@H]2SC(F)(F)F)N1OS(=O)(=O)[O-].[Na+] [Example 7, sulphate]

["40 to 60 nM", "10 to 40 nM", "40 to 60 nM"]
